# System: H929 multiple myeloma tumor line
# Assay procedure: In vitro cytotoxicity, MTT assay (Example B, Method A)
# Assay type: cell-based
# Test parameters: H929 cells, 48 hours exposure, read-out: C50
Catalogue of molecules with associated log10 IC50
Observable: log10 IC50 (log10 of the value in µM)

>  <Molecule>
CC(C)C(COc1ccncc1)CC1Cc2ccccc2[C@]12CC[C@@](Nc1cccc(Cl)c1)(C(=O)O)CC2 (single isomer, unassigned) [Example 533]

>  <Assay target>
H929 multiple myeloma tumor line

>  <log10 IC50>
1.16

$$$$
>  <Molecule>
O=C(O)[C@]1(Nc2cccc(Cl)c2)CC[C@@]2(CC1)c1ccccc1CC2CC(COc1ccnc2c1CCC2)COc1ccnc2c1CCC2 (single isomer, unassigned) [Example 497]

>  <Assay target>
H929 multiple myeloma tumor line

>  <log10 IC50>
0.09

$$$$
>  <Molecule>
C[C@@H]1CCCc2nccc(OCC(CC3=Cc4ccccc4[C@]34CC[C@@](Nc3cccc(Cl)c3)(C(=O)O)CC4)C(F)F)c21 (single isomer, unassigned) [Example 516]

>  <Assay target>
H929 multiple myeloma tumor line

>  <log10 IC50>
0.59

$$$$
>  <Molecule>
CC(CC1Cc2ccccc2[C@]12CC[C@@](Nc1cccc(Cl)c1)(C(=O)O)CC2)C1CCC(=O)CC1 (single isomer, unassigned) [Example 572]

>  <Assay target>
H929 multiple myeloma tumor line

>  <log10 IC50>
1.48

$$$$
>  <Molecule>
C[C@@H](COc1ccnc2c1[C@H](C)CCC2)CC1Cc2c(F)c(Cl)ccc2[C@]12CC[C@@](Nc1cccc(Cl)c1)(C(=O)O)CC2 (single isomer, unassigned)

>  <Assay target>
H929 multiple myeloma tumor line

>  <log10 IC50>
-1.14

$$$$
